# subject-of-test: T1, human IL-10 receptor (hIL-10R alpha and beta chains) on HEK-Blue IL-10 reporter cells (human, UniProt Q13651 22-578; Q08334 20-325)
# T1 sequence 1: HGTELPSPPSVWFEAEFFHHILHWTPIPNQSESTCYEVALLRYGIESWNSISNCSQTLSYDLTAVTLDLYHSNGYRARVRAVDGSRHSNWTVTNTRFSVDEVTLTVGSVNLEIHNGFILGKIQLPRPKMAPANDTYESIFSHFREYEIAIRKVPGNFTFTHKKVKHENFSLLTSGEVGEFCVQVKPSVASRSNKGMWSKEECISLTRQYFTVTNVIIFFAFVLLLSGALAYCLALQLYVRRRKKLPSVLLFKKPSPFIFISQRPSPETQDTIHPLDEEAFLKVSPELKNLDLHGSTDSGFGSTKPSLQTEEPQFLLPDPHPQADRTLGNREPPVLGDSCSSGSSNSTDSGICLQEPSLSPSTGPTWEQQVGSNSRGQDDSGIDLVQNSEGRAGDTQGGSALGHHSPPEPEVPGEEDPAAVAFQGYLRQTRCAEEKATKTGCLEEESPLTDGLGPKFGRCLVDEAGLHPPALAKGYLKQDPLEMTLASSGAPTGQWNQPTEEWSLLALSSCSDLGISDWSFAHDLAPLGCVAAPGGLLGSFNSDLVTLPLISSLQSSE
# T1 sequence 2: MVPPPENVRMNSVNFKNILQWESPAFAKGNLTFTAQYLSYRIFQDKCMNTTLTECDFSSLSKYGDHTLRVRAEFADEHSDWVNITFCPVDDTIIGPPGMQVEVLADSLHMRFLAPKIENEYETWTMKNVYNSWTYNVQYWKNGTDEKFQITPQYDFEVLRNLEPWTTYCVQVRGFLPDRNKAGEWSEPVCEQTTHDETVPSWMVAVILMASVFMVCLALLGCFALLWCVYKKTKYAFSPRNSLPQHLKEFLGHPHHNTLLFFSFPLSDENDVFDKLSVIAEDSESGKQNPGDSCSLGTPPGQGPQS
# assay-info: cell-based or functional assay
Label condition met when Abs 630 (25 nM) is strictly below 0.5 Abs 630; at or above that, label condition not met.

Worked examples, 2 binders total:
binder	label-value
IL10R binding molecule of SEQ ID NO: 265 (bispecific antibody) QVQLQESGGGSVQAGGSLRLSCAASRFTYSSYCMGWFRQAPGKEREGVASIDSDGSTSYTDSVKGRFTISKDNAKNTLYLQMNSLKPEDTAMYYCALDLMSTVVPGFCGFLLSAGMDYWGKGTQVTVSSGGGSQVQLQESGGGSVQAGGSLRLSCAASRYTYNSYCMGWFRQAPGKEREGVATIDSDGMTRYADSVKGRFTISKDNAKNTLYLQMNSLKPEDTAMYYCAADADCTIAAMTTNPLGQGTQVTVSSASHHHHHH	condition not met
IL10R binding molecule of SEQ ID NO: 305 (bispecific antibody) QVQLQESGGGSVQAGGSLRLSCAASGYTYSSGCMGWFRQAPGKEREAVAAINSDGSTSYADSVKGRFTISKDNAKNTLYLQMNSLKPEDTAMYYCAAEPYCSGGYPRWSVAEFGYWGQGTQVTVSSGGGSQVQLQESGGGSVQAGGSLRLSCAASRYLYSIDYMAWFRQSPGKEREPVAVIYTASGATFYPDSVKGRFTISQDNAKMTVYLQMNSLKSEDTAMYYCAAVRKTDSYLFDAQSFTYWGQGTQVTVSSASHHHHHH	condition not met

Now for another entry.
Inquiry: Does this binder meet the criterion Abs 630 (25 nM) < 0.5 Abs 630? IL10R binding molecule of SEQ ID NO: 285 (bispecific antibody) QVQLQESGGGSVQAGGSLRLSCTVSGYTYSSNCMGWFRQAPGKEREGVATIYTGGGNTYYADSVKGRFTISQDNAKNTVYLQMNNLKPEDTAMYYCAAEPLSRVYGGSCPTPTFDYWGQGTQVTVSSGGGSQVQLQESGGGSVQAGGSLRLSCAASGYTYSSYCMGWFRQAPGKEREGVAHIDSDGSTSYADSVKGRFTISKDNAKNTLYLQMNSLKPEDTAMYYCAADPIPGPGYCDGGPNKYWGQGTQVTVSSASHHHHHH
Reply text: condition met
